# SYSTEM NAME: human ADRA2C receptor (Homo sapiens (Human), UniProt P18825)
# Sequence (P18825 whole entry): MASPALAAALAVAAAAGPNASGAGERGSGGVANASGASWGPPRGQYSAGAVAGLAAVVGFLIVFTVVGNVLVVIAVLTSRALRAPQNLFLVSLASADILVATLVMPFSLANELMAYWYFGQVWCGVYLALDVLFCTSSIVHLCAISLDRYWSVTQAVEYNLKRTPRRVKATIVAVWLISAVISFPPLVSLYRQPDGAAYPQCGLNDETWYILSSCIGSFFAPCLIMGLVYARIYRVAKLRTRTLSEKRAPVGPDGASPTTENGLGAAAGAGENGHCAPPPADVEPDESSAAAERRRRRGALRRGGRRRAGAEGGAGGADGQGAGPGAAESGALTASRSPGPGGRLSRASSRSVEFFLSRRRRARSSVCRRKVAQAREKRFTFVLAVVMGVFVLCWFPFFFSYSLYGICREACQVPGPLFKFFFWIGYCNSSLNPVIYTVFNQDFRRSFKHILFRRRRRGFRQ
# ASSAY INFO: In vitro activity assay, inhibition of recombinant ADRA2C (CHO-K1 cells coexpressing Gαq and aequorin, noradrenaline-induced bioluminescence)
# Format: cell-based
# ASSAY CONDITIONS: inhibition of agonist (noradrenaline)-induced bioluminescence signal; some values are means of multiple determinations; read-out: ARα2C IC50
READOUT TYPE: IC50 (nM)

CCC1CN(c2ncc(C(=O)NCc3ncc(F)cc3F)s2)CCC1N1CCC[C@@H](C)C1 (single isomer, unassigned) [Example 163] :: 480

I. COCCC1CCCN(C2CCN(c3ncc(C(=O)NCc4ncc(F)cc4F)s3)CC2)C1 (racemic)
II. CC1CN(c2ncc(C(=O)NCc3ncc(F)cc3F)s2)CCC1N1CCC[C@@H](C)C1 (single isomer, unassigned) [Example 165]
III. O=C(NCc1ncc(F)cc1F)c1cnc(N2CCC(N3CCC[C@@H](C(F)(F)F)C3)CC2)s1
[ask] Hello, I need these entries ordered by IC50, highest reading first. Thanks! Your task in answering is to list the labels in the requested order.
[reply] II, III, I

###

# SYSTEM NAME: human ADRA2C receptor (Homo sapiens (Human))
# ASSAY INFO: In vitro activity assay, inhibition of recombinant ADRA2C (CHO-K1 cells coexpressing Gαq and aequorin, noradrenaline-induced bioluminescence)
# Format: cell-based
# ASSAY CONDITIONS: inhibition of agonist (noradrenaline)-induced bioluminescence signal; some values are means of multiple determinations; read-out: ARα2C IC50
READOUT TYPE: IC50 (nM)

Below: 4 compounds and their reported IC50.
O=C(NCc1ncc(F)cc1F)c1cnc(N2CCC(N3CCCC(C4CC4)C3)CC2)s1 (racemic) [Example 137] :: 19
C[C@@H]1CCCN(C2CCN(c3nnc(C(=O)NCc4ncc(F)cc4F)s3)CC2)C1 [Example 152] :: 660
CC(NC(=O)c1cnc(N2CCC(N3CCC[C@@H](C)C3)CC2)s1)c1cc(F)ccc1F (stereo partly shown) [Example 47] :: 25
C[C@@H]1CCCN(C2CCN(c3nc(C(=O)NCc4ncc(F)cc4F)cs3)CC2F)C1 (single isomer, unassigned) [Example 158] :: 98

a. CC1CN(c2ncc(C(=O)NCc3ncc(F)cc3F)s2)CCC1N1CCC[C@@H](C)C1 (single isomer, unassigned) [Example 164]
b. C[C@@H]1CCCN(C2CCN(c3ncc(C(=O)NC[C@H](C)c4ccccc4)s3)CC2)C1 (relative stereo) [Example 83]
[ask] Which value of IC50 is smaller, the one for a or the one for b ? Kindly state the label of the option you pick.
[reply] a
(a: 24 nM, b: 98.1 nM)

###

# SYSTEM NAME: human ADRA2C receptor (Homo sapiens (Human), UniProt P18825)
# ASSAY INFO: In vitro radioligand binding study, competition assay with [3H] rauwolscine (Eurofins Panlabs)
# ASSAY CONDITIONS: displacement of 0.5 nM [3H] rauwolscine; homogenates of CHO-K1 cells expressing human ADRA2C; 1 h, 4° C.; read-out: hARα2C IC50
READOUT TYPE: IC50 (nM)

CCOC1CCCN(C2CCN(c3ncc(C(=O)NCc4ncc(F)cc4F)s3)CC2)C1 (single isomer, unassigned) [Example 124] :: 5.1

a. C[C@@H]1CCCN(C2CCN(c3ncc(C(=O)NCc4ncc(F)cc4F)s3)CC2)C1 [Example 1]
b. O=C(NCc1ncc(F)cc1F)c1cnc(N2CCC(N3CCC[C@@H](CF)C3)CC2)s1 [Example 41]
c. O=C(NCc1ncc(F)cc1F)c1cnc(N2CCC(N3CCCC4(CC4)C3)CC2)s1 [Example 64]
[ask] Sort low-to-high on IC50, please. Your task in answering is to list the labels in the requested order.
[reply] c, a, b

###

# SYSTEM NAME: UniProt:P18825
# ASSAY INFO: In vitro activity assay, inhibition of recombinant ADRA2C (CHO-K1 cells coexpressing Gαq and aequorin, noradrenaline-induced bioluminescence)
# Assay type: cell-based
# ASSAY CONDITIONS: inhibition of agonist (noradrenaline)-induced bioluminescence signal; some values are means of multiple determinations; read-out: ARα2C IC50
pIC50: −log10 of the molar value.
READOUT TYPE: pIC50

Below: 3 compounds and their reported pIC50.
CCC1CN(c2ncc(C(=O)NCc3ncc(F)cc3F)s2)CCC1N1CCC[C@@H](C)C1 (single isomer, unassigned) [Example 162] :: 6.09
C[C@@H]1CCCN(C2CCN(c3ncc(C(=O)NCc4cccc(C(F)(F)F)n4)s3)CC2)C1 [Example 32] :: 6.19
CC(NC(=O)c1cnc(N2CCC(N3CCC[C@@H](C)C3)CC2)s1)c1cc(F)ccc1F (single isomer, unassigned) [Example 46] :: 8.08

a. O=C(NCc1ncc(F)cc1F)c1cnc(N2CCC(N3CCCC(C4CCC4)C3)CC2)s1 (racemic) [Example 138]
b. O=C(NCc1ncc(F)cc1F)c1cnc(N2CCCC(N3CCCC4(C3)CC4(F)F)CC2)s1 (stereo not shown) [Example 156]
c. Cc1ccc([C@@H](C)NC(=O)c2cnc(N3CCC(N4CCC[C@@H](C)C4)CC3)s2)cc1 (relative stereo) [Example 95]
d. CC1CC(N2CCC[C@@H](C)C2)CCN1c1ncc(C(=O)NCc2ncc(F)cc2F)s1 (single isomer, unassigned) [Example 161]
[ask] Sort low-to-high on pIC50, please. Your task in answering is to list the labels in the requested order.
[reply] c, d, b, a

###

Let's go through some recorded pKi values for human ADRA2C receptor (Homo sapiens (Human)) together.
pKi: −log10 of the molar value.
READOUT TYPE: pKi

O=C(NCc1ncc(F)cc1F)c1cnc(N2CCC(N3CCCC4(CC4)C3)CC2)s1 :: 8.55

1. CCOC1CCCN(C2CCN(c3ncc(C(=O)NCc4ncc(F)cc4F)s3)CC2)C1 (single isomer, unassigned)
2. C[C@@H]1CCCN(C2CCN(c3ncc(C(=O)NCc4ncc(F)cc4F)s3)CC2)C1
[ask] Which value of pKi is smaller, the one for 1 or the one for 2 ? Kindly state the label of the option you pick.
[reply] 2
(2: 7.62, 1: 8.64)

###

# SYSTEM NAME: human ADRA2C receptor (Homo sapiens (Human), UniProt P18825)
# ASSAY INFO: In vitro activity assay, inhibition of recombinant ADRA2C (CHO-K1 cells coexpressing Gαq and aequorin, noradrenaline-induced bioluminescence)
# Type: cell-based
# ASSAY CONDITIONS: inhibition of agonist (noradrenaline)-induced bioluminescence signal; some values are means of multiple determinations; read-out: ARα2C IC50
pIC50: −log10 of the molar value.
READOUT TYPE: pIC50

C[C@@H]1CCCN(C2CCN(c3ncc(C(=O)N(C)Cc4cccnc4)s3)CC2)C1 [Example 90] :: 6.01
C[C@@H]1CCCN(C2CCN(c3nc(C(=O)NCc4ncc(F)cc4F)cs3)CC2F)C1 (single isomer, unassigned) [Example 157] :: 8.57
O=C(NCc1ncc(F)cc1F)c1cnc(N2CCCC(N3CCCC4(CC4)C3)CC2)s1 (racemic) [Example 153] :: 7.64
C[C@@H]1CCCN(C2CCN(c3nc(C(=O)NCc4ncc(F)cc4F)co3)CC2F)C1 (single isomer, unassigned) [Example 159] :: 7.60
C[C@@H]1CCCN(C2CCN(c3ncc(C(=O)NCc4cc(Cl)ccc4F)s3)CC2F)C1 (mixture of isomers) [Example 113] :: 9.21

1. CC(C)(C)C1CCCN(C2CCN(c3ncc(C(=O)NCc4ncc(F)cc4F)s3)CC2)C1 (racemic) [Example 149]
2. C[C@@H]1CCCN(C2CCN(c3ncc(C(=O)Nc4ccc(F)cc4Cl)s3)CC2)C1 [Example 88]
[ask] Which value of pIC50 is smaller, the one for 1 or the one for 2 ? Kindly state the label of the option you pick.
[reply] 2
